// data source = patent US20120058118A1

Quick list: EC50 per entry.
assayed.target: T1, human A-beta(1-40) peptide, monomeric (BAM) (human, biotin at the C-terminus in capture ELISA, SPR and TR-FRET; not biotinylated where coated directly (Example 7))
T1 construct: synthetic peptide (Anaspec), TFA/HFIP treated to give monomer; also called monomeric A-beta
test.details: BAM ELISA

| binder | EC50 [nM] |
| --- | --- |
| ABII35C7 (VHH) VHH: EVQLVESGGGLVQPGGSLRLSCAASGRTFSIYNMGWFRQAPGKEREFVAAISRSGSSTYYGDSVKGRFTISRDNAKKTVYLQMNSLKPEDTAVYHCAAARFGTPINTRGSYDYWGQGTQVTVSS | 1.9 |
| ABII42F5 (VHH) VHH: EVQLVESGGGLVQAGDSLRLSCTASGRTFTDYNIGWFCQAPGKEREFVAAISGSGGSTYYADSAKGRFTISRDNAKNTVYLQMNSLKPEDTAVYACAAAQRRLAVNVDTSYNVWGQGTQVTVSS | 41.1 |
| ABII42D4 (VHH, also called ABIIPMP42D4) VHH: EVQLVESGGGLVLAGGSLRLSCVHSGPTFSTDTMGWFRQAPGKEREFVAAVTWNSGRTNYADSVKGRFTVSRDNTRNAAYLQMSGLKDEDTAVYYCTAHRLVVGGTSVGDWRYWGQGTQVTVSS | 14.2 |
